System: NRF2
experiment_summary: qPCR analysis of NRF2-regulated genes
Type: cell-based, human
run_conditions: Homo sapiens; WI-38 cells, 10 μM, 24 hrs, n=4, qPCR normalized by B2M; read-out: HMOX1 Normalized fold change
readout_label: fold induction at 10 µM
Give bare numbers.

Please go through the list and note fold induction at 10 µM for each compound.
1. CCc1ccccc1NC(=O)c1ccc([N+](=O)[O-])o1
2. Cc1cc(C)c(C(=O)/C=C/c2ccccc2F)c(O)n1
3. Oc1ncnc2sc3c(c12)CCC3
4. COc1ccc(/C=C2\SC(=N)N(c3nccs3)C2=O)cc1
5. CCCC(=O)Nc1ccc(-c2cn3cccc(C)c3n2)cc1
6. Cc1cc(N)n(-c2ccccc2C(=O)O)n1
7. O=C1NCCCc2cc(Cl)sc21

Response:
[1.32, 23.8, 1.11, 3.02, 0.821, 1.1, 1.25]
